# reported pIC50; entries follow
# measurement-target: rhHDAC 1 (Homo sapiens)
# Sequence (Q13547 whole entry, canonical isoform): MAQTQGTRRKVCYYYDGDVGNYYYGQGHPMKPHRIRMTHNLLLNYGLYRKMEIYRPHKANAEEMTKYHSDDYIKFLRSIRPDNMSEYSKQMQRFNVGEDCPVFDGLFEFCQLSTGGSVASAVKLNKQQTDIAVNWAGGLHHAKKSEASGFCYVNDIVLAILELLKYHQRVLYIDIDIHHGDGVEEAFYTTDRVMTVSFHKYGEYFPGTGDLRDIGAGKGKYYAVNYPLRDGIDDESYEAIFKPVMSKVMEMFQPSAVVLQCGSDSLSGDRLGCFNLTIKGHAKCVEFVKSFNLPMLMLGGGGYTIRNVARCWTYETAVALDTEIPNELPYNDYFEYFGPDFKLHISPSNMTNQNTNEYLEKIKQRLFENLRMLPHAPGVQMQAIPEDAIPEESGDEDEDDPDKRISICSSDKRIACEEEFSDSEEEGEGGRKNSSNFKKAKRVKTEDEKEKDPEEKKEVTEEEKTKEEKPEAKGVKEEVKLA
# protocol: Inhibition of recombinant human HDAC isoforms
# details: mean ± SD, triplicate per plate, min two plates; read-out: ED50 rhHDAC 1
pIC50: −log10 of the molar value.
quantity-measured: pIC50

# smiles-structure, measurement-target, observed-value
rows = [
    ("COc1ccc(NS(=O)(=O)c2cccc(/C=C/C(=O)NO)c2)cc1", "rhHDAC 1 (Homo sapiens)", 7.72),
    ("COc1ccccc1N1CCN(S(=O)(=O)c2cccc(/C=C/C(=O)NO)c2)CC1", "rhHDAC 1 (Homo sapiens)", 7.28),
    ("COc1ccc(N2CCN(S(=O)(=O)c3cccc(/C=C/C(=O)NO)c3)CC2)cc1", "rhHDAC 1 (Homo sapiens)", 7.12),
    ("O=C(/C=C/c1cccc(S(=O)(=O)Nc2cccc(F)c2)c1)NO", "rhHDAC 1 (Homo sapiens)", 7.36),
    ("O=C(/C=C/c1nc2ccccc2o1)NO", "rhHDAC 1 (Homo sapiens)", 6.87),
]
